System: Epidermal growth factor receptor (Homo sapiens) | Read-out: pIC50 | Origin: multiple publications
API: returns pIC50 as number; meaning -log10 of concentration in mol/L.

stdin: # returns recorded pIC50 (system: Epidermal growth factor receptor (Homo sapiens)) for Cc1ccc2nc(NC(=O)CSc3nc(O)c(C#N)c(-c4coc5ccccc5c4=O)n3)sc2c1
stdout: 6.69

stdin: # returns recorded pIC50 (system: Epidermal growth factor receptor (Homo sapiens)) for O=C(/C=C/c1ccccc1)Nc1cccc(Nc2nc(Nc3ccc4[nH]c(=O)oc4c3)ncc2Cl)c1
stdout: 7.12

stdin: # returns recorded pIC50 (system: Epidermal growth factor receptor (Homo sapiens)) for CCCCOc1ccc2oc(=O)cc(C3SC(N(C(C)=O)[C@@H]4O[C@H](COC(C)=O)[C@@H](OC(C)=O)[C@H](OC(C)=O)[C@H]4OC(C)=O)=NN3C(C)=O)c2c1 (stereo partly specified)
stdout: 6.66

stdin: # returns recorded pIC50 (system: Epidermal growth factor receptor (Homo sapiens)) for COc1cc(-c2nc3ccccc3s2)ccc1OCC(=O)N1C(=O)C=CC1=O
stdout: 6.92

----------
pIC50: −log10 of the molar value.
System: UniProt:P00533 | Read-out: pIC50 | Origin: multiple publications
Please note: class 1 applies when pIC50 is 7 or greater, and class 0 applies otherwise.

# COMPOUND, GROUP LABEL
data = [
    ("O=C(CSc1nnc(Nc2ccccc2)s1)N1N=C(c2ccccc2)CC1c1ccc([N+](=O)[O-])cc1 (configuration not stated)", "class 1"),
    ("CCCCCOc1ccc2oc(=O)cc(C3SC(N(C(C)=O)[C@@H]4O[C@H](COC(C)=O)[C@@H](OC(C)=O)[C@H](OC(C)=O)[C@H]4OC(C)=O)=NN3C(C)=O)c2c1 (some centres not stated)", "class 0"),
]

Proceed to the following item.
stdin: For this compound, is measured pIC50 7 or higher? CC[C@H](C)Nc1cc(Nc2ccnc(-c3cnn(S(=O)(=O)C4CC4)c3)n2)ncc1C(=O)NC
stdout: class 1

----------
pIC50: −log10 of the molar value.
System: Epidermal growth factor receptor (Homo sapiens) | Read-out: pIC50 | Origin: multiple publications
Please note: t applies when pIC50 is 7 or greater, and f applies otherwise.

The examples below pair each entry with its known result.
# MOLECULE, GROUP LABEL
records = [
    ("CC(C)Oc1cc(Nc2ccnc(-c3cnn(S(=O)(=O)C4CC4)c3)n2)ncc1C(=O)N1CC(C(C)(C)O)C1", "f"),
    ("COc1cc(N2CCN(C(C)=O)CC2)ccc1Nc1ncc(Cl)c(Nc2cccc(NC(=O)/C=C/c3ccccc3)c2)n1", "t"),
    ("CCOc1ccc2oc(=O)cc(C3SC(N(C(C)=O)[C@@H]4O[C@H](COC(C)=O)[C@H](OC(C)=O)[C@H](OC(C)=O)[C@H]4OC(C)=O)=NN3C(C)=O)c2c1 (stereo partly specified)", "f"),
    ("C=CC(=O)Nc1cccc(Nc2nc(Nc3ccc(N4CCN(C(C)=O)CC4)cc3)ncc2Cl)c1", "t"),
    ("CCC(=O)Nc1cccc(Nc2nc(Nc3cnn(C)c3)ncc2Cl)c1", "t"),
    ("CC(=O)OC[C@H]1O[C@@H](N(C(C)=O)C2=NN(C(C)=O)C(c3cc(=O)oc4ccc(OCCC(C)C)cc34)S2)[C@H](OC(C)=O)[C@@H](OC(C)=O)[C@@H]1OC(C)=O (stereo partly specified)", "f"),
    ("CC(C)Nc1cc(Nc2ccnc(-c3cnn(S(=O)(=O)C4CC4)c3)n2)ncc1C(=O)N1CC(C(C)(C)O)C1", "f"),
    ("CN(C)CCSSCCC(=O)NC1CCN(C(=O)COc2ccc(Cl)cc2Cl)CC1", "f"),
    ("COc1cc(OC)cc(-c2nc(-c3ccc(-c4nc(-c5nnc(-c6ccncc6)o5)c[nH]4)cc3)no2)c1", "f"),
    ("Oc1ccccc1-c1nc(NCN2CCOCC2)c2ccccc2n1", "f"),
]

stdin: For this molecule, is measured pIC50 7 or higher? CC(=O)OC[C@H]1O[C@@H](N(C(C)=O)C2=NN(C(C)=O)C(c3cc(=O)oc4cc(OCC(C)C)ccc34)S2)[C@H](OC(C)=O)[C@@H](OC(C)=O)[C@@H]1OC(C)=O (stereo partly specified)
stdout: f

stdin: For this molecule, is measured pIC50 7 or higher? Cn1cc(Nc2ncc(Cl)c(Nc3cccc(NC(=O)/C=C/c4ccccc4)c3)n2)cn1
stdout: t
